ASSAYED_TARGET: T1, BCMA-Fc fusion protein (Acrobiosystems, catalog number BC7-H5254) (human, UniProt Q02223 1-54, biotin cross-linked, 3 to 5 biotin molecules per molecule, where the biotinylated antigen is used (ELISA of Table 3); sites not stated)
T1 construct: Bought protein; also called BCMA antigen; BCMA-Fc antigen; not shown: human Fc of the bought fusion protein
T1 sequence (looked up): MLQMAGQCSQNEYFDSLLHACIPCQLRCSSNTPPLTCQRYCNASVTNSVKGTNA
PROTOCOL_TEXT: affinity worked out from the ELISA EC50 fold against J6 (taken as about 0.2 nM)
Below, each entry is listed with its recorded Kd.
Please respond with the number in nM and leave the unit unwritten.

Examples from the recorded data:
# BINDER, Kd / nM
records = [
    ("B10.5 scFv-Fc (Fc fusion, also called mutant B10.5; not shown: Fc (scFv-Fc)) scFv: QVQLQQSGAEVKKPGSSVKVSCKASGGTFSKSAIHWVRQAPGQGLEWMGGVIPIFGTANYAQKFQGRVTITADESTSTAYMELSSLRSEDTAVYYCARGWYLDLWGRGTLVTVSSASTGGSSRSSSSGGGGSGGGGLPVLTQPPSASGTPGQRVTISCSGSSSNIGGYSVNWYQQFPGTAPKLLIYRNNQRPSGVPDRFSGSKSGASASLAISGLQSEDVADYYCAAWDDSLIGYVFGTGTQLTVL", 0.27),
    ("B10.9 scFv-Fc (Fc fusion, also called mutant B10.9; not shown: Fc (scFv-Fc)) scFv: QVQLQQSGAEVKKPGSSVKVSCKASGGTFSKSAIQWVRQAPGQGLEWMGGVIPIFGTANYAQKFQGRVTITADESTSTAYMELSSLRSEDTAVYYCARGWYLDLWGRGTLVTVSSASTGGSSRSSSSGGGGSGGGGLPVLTQPPSASGTPGQRVTISCSGSSNNIGGYSVNWYQQFPGTAPKLLIYRNNQRPSGVPDRFSGSKSGASASLAISGLQSEDEADYYCAAWDDSEIGWLFGTGTQLTVL", 0.29),
    ("B10.4 scFv-Fc (Fc fusion, also called mutant B10.4; not shown: Fc (scFv-Fc)) scFv: QVQLQQSGAEVKKPGSSVKVSCKASGGTFSKSAIMWVRQAPGQGLEWMGGVIPIFGTANYAQKFQGRVTITADESTSTAYMELSSLRSEDTAVYYCARGWYLDLWGRGTLVTVSSASTGGSSRSSSSGGGGSGGGGLPVLTQPPSASGTPGQRVTISCSGSSNNIGGYSVNWYQQFPGTAPKLLIYRNNQRPSGVPDRFSGSKSGASFSLAISGLQFEDEADYYCARWDDSVIGWVLGTGTQLTVL", 0.31),
]

Now for the binder whose Kd we want.
Form field Kd, entry B10.3 scFv-Fc (Fc fusion, also called mutant B10.3; not shown: Fc (scFv-Fc)) scFv: QVQLQQSGAEVKKPGSSVKVSCKASGGTFSKSAIQWVRQAPGQGLEWMGGVIPIFGTANYAQKFQGRVTITADESTSTAYMELSSLRSEDTAVYYCARGWYLDLWGRGTLVTVSSASTGGSSRSSSSGGGGSGGGGLPVLTQPPSASGTPGQRVTISCSGSSNNIGGYSVNWYQQFPGTAPKLLIYRNNQRPSGVPDRFSGSKSGASASLAISGLQSEDEADYYCAAWDDSVIGWLFGTGTQLTVL : 0.26
